Just for reference, patent US20200247855A1 is where these values come from.

- SYSTEM_UNDER_TEST: T1, CXCL7_HUMAN (human, UniProt P02775 59-128)
- T1 chain: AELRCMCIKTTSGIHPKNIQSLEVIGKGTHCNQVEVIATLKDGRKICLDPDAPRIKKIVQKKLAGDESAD
- ASSAY_NOTES: BLI
ENDPOINT_NAME: Kd (nM)
State just the number; it will be interpreted in nM.

Item P1126_AMBCA (other) KPQILQRTDKSTDSEWDPQTCPETCIPSKNITCSDGCVCVKLGEEEEGTCFNMTGVDWLGSPSDD has what recorded Kd?
6.05

Item P1142_AMBCA (other) KPQILQRTDHSTDSDWDPQMCPETCNPSKNISCSSECLCVTLGGGDETGTCFNMSGVDWLGHAQASDGHNDG has what recorded Kd?
1.83
